experimentalTarget: T1, human Sortilin Fc fusion protein (human, UniProt Q99523 78-755)
T1 construct: whole entry named; also called hSort-Fc
protocol: ForteBio, avid;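 also: whole IgG captured on AHQ sensors, then contacted with Sortilin Fc fusion antigen at 100 nM, followed by an off-rate phase in buffer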
resultType: Kd (nM)

{"binder": "S-16 (antibody, V domains shown, IgG) VH: QVQLVQSGAEVKKPGSSVKVSCKASGGTFSSYAISWVRQAPGQGLEWMGGIIPIFGTANYAQKFQGRVTITADESTSTAYMELSSLRSEDTAVYYCARSPYSGTRDFDLWGRGTLVTVSS VL: DIQMTQSPSSVSASVGDRVTITCRASQGISSWLAWYQQKPGKAPKLLIYAASNLQSGVPSRFSGSGSGTDFTLTISSLQPEDFATYYCQQGNSYPITFGGGTKVEIK", "reading": 3.8}
{"binder": "S-19 (antibody, V domains shown, IgG) VH: QVQLVQSGAEVKKPGSSVKVSCKASGGTFSSYAISWVRQAPGQGLEWMGGIIPIFGTASYAQKFQGRVTITADESTSTAYMELSSLRSEDTAVYYCARESRIPGSGYYYYYGMDVWGQGTTVTVSS VL: DIQMTQSPSSLSASVGDRVTITCRASQSISSYLNWYQQKPGKAPKLLIYSASSLQSGVPSRFSGSGSGTDFTLTISSLQPEDFATYYCQQTDGKPPTFGGGTKVEIK", "reading": 0.843}
{"binder": "S-83 (antibody, V domains shown, IgG) VH: QLQLQESGPGLVKPSETLSLTCTVSGGSISSSSYYWGWIRQPPGKGLEWIGSIYYSGSTYYNPSLKSRVTISVDTSKNQFSLKLSSVTAADTAVYYCARGSPTWLRDYYMDVWGKGTTVTVSS VL: EIVLTQSPATLSVSPGERATLSCRASQSVSSNLAWYQQKPGQAPRLLIYGASTRATGIPARFSGSGSGTEFTLTISSLQSEDFAVYYCQQYNAFPPTFGGGTKVEIK", "reading": 1.79}
